Attribution: ChEMBL document CHEMBL4689842

system: Fibroblast; assay: Multiplex assay against human fibroblast; assay type: toxicity, cell-based; details: 24 h, 1 µM, compound concentration 1 uM, replicate 1
Value kind: Population Fragmented Nuclei (%)
Answers are plain numbers, in %.

Please review the entries below; each comes with its answer.
In: Specify Population Fragmented Nuclei (%) for "O=C1NC(=O)C(c2cnc3ccccn23)=C1c1cn2c3c(cc(F)cc13)CN(C(=O)N1CCCCC1)CC2" and stop.
Out: 25

In: Specify Population Fragmented Nuclei (%) for "Cc1cc(C)c(S(=O)(=O)N(Cc2ccc(-c3cccc(S(C)(=O)=O)c3)cc2)Cc2ccc(C(F)(F)F)o2)c(C)c1" and stop.
Out: 21

In: Specify Population Fragmented Nuclei (%) for "Cc1cn(-c2cc(NC(=O)c3ccc(C)c(Nc4nccc(-c5cccnc5)n4)c3)cc(C(F)(F)F)c2)cn1" and stop.
Out: 32

In: Specify Population Fragmented Nuclei (%) for "CCn1c(=O)c(-c2ccc(-c3cncs3)cc2Cl)cc2cnc(Nc3ccc(N4CCN(C)CC4)cc3)nc21" and stop.
Out: 26

Moving on to the next compound.
In: Specify Population Fragmented Nuclei (%) for "CCCn1c(=O)c2[nH]c(-c3cnn(Cc4cccc(C(F)(F)F)c4)c3)nc2n(CC)c1=O" and stop.
Out: 21

====

test system: Fibroblast; assay: Multiplex assay against human fibroblast; assay type: toxicity, cell-based; settings: 24 h, 1 µM, compound concentration 1 uM, replicate 2
Give measured Population Normal (%) for each item. Keep answers brief.
Numbers only, in %.

Please review the entries below; each comes with its answer.
In: Specify Population Normal (%) for "Cc1ccc(C(=O)Nc2cccc(C(F)(F)F)c2)cc1Nc1nc(-c2cccnc2)nc2c1cnn2C" and stop.
Out: 96

In: Specify Population Normal (%) for "COC(=N)c1nc2ccc3ncnc(Nc4ccc(OC)cc4F)c3c2s1" and stop.
Out: 69

In: Specify Population Normal (%) for "CCCS(=O)(=O)c1nc(NC2CC2)cc(-c2ccc3c(ccn3C3CC(C)(C)NC(C)(C)C3)c2)n1" and stop.
Out: 94

In: Specify Population Normal (%) for "CNc1cc(Oc2cc(C(=O)Nc3cc(N4CCN(C)CC4)cc(C(F)(F)F)c3)ccc2C)ncn1" and stop.
Out: 93

In: Specify Population Normal (%) for Cn1nc(C(F)(F)F)cc1-c1cnc(N2CCc3cc(S(=O)(=O)Nc4c(F)cc(Cl)cc4F)cc(N4CCCC4=O)c32)nc1 [TP-020] and stop.
Out: 63

In: Specify Population Normal (%) for "S=C(NCCCc1c[nH]cn1)NCCCN(Cc1ccc(Cl)c(Cl)c1)c1ccc(Br)cn1" and stop.
Out: 91

In: Specify Population Normal (%) for "Cl.O=C(c1ccc(Nc2nccc(-c3cc4ccccc4s3)n2)cc1)N1CCC(N2CCCC2)CC1" and stop.
Out: 67

Moving on to the next compound.
In: Specify Population Normal (%) for CN[C@@H]1C[C@H]2O[C@@](C)([C@@H]1OC)n1c3ccccc3c3c4c(c5c6ccccc6n2c5c31)C(=O)NC4 [STAUROSPORINE] and stop.
Out: 65

====

test system: HEK-293T; assay: Multiplex assay against HEK293T; type: toxicity, cell-based; conditions: human, 48 h, 10 µM, compound concentration 10 uM, replicate 1
Give measured Population Mitotic Cells (%) for each item. Keep answers brief.
Numbers only, in %.

Please review the entries below; each comes with its answer.
In: Specify Population Mitotic Cells (%) for "O=C1NC(=O)C(c2cnc3ccccn23)=C1c1cn2c3c(cc(F)cc13)CN(C(=O)N1CCCCC1)CC2" and stop.
Out: 19

In: Specify Population Mitotic Cells (%) for "O=C1N/C(=N/c2ccccc2F)S/C1=C\c1ccc(C(=O)O)cc1" and stop.
Out: 70

In: Specify Population Mitotic Cells (%) for "O=C(Nc1ccc(Cl)cc1)Nc1cccc(-c2cccc(N3CCCC3)n2)c1" and stop.
Out: 19

In: Specify Population Mitotic Cells (%) for CN1CCC(=C2c3ccccc3CC(=O)c3sccc32)CC1.O=C(O)/C=C/C(=O)O [KETOTIFEN FUMARATE] and stop.
Out: 28

In: Specify Population Mitotic Cells (%) for "CCc1cccc(CC)c1NC(=O)c1nn(C)c2c1CCc1cnc(Nc3ccc(C(=O)NC4CCN(C)CC4)cc3OC(F)(F)F)nc1-2" and stop.
Out: 15

Answer for every listed entry: what is its Population Mitotic Cells (%)? The entries follow.
1. COc1cc(N2CCN(C)CC2)ccc1Nc1ncc2c(n1)N(C)c1ccccc1C(=O)N2C
2. O=C(Cc1ccc(-c2ccc(OCCN3CCOCC3)cc2)cn1)NCc1ccccc1
3. CNc1cc(Oc2cc(C(=O)Nc3cc(N4CCN(C)CC4)cc(C(F)(F)F)c3)ccc2C)ncn1
4. Cl.Oc1ccc2c3c1O[C@H]1c4[nH]c5c(c4C[C@@]4(O)[C@@H](C2)N(CC2CC2)CC[C@]314)C[C@@]1(O)[C@H]2Cc3ccc(O)c4c3[C@@]1(CCN2CC1CC1)[C@H]5O4
5. COCC(=O)NC/C=C/c1ccc2ncnc(Nc3ccc(Oc4ccc(C)nc4)c(C)c3)c2c1
6. O=C(Nc1ccc(-c2ccnc(Nc3ccc(N4CCOCC4)cc3)n2)cc1)[C@@H]1CCCN1

Out:
1: 30; 2: 44; 3: 8; 4: 70; 5: 37; 6: 50

Answer for every listed entry: what is its Population Mitotic Cells (%)? The entries follow.
1. CCCn1c(=O)c2[nH]c(-c3cnn(Cc4cccc(C(F)(F)F)c4)c3)nc2n(CC)c1=O
2. O=C(Nc1ccc(-n2nc(-c3cccnc3)cc2C(F)(F)F)cn1)c1ccc(-c2ccccc2)c(F)c1

Out:
1: 46; 2: 44

====

tested on: HEK-293T; experiment: Multiplex assay against HEK293T; type: toxicity, cell-based; conditions: human, 12 h, 1 µM, compound concentration 1 uM, replicate 2
Value kind: Population Fragmented Nuclei (%)
Just so you know, I need the unit written after the number.

Please review the entries below; each comes with its answer.
In: Specify Population Fragmented Nuclei (%) for "CCn1cc(-c2ccnc3[nH]c(-c4cccc(CN(C)C)c4)cc23)c(-c2ccc(NC(=O)N(C)C)cc2)n1" and stop.
Out: 6%

In: Specify Population Fragmented Nuclei (%) for "NC(=O)c1cccc(-c2cc(Nc3ccc(OC(F)(F)F)cc3)ncn2)c1" and stop.
Out: 7%

In: Specify Population Fragmented Nuclei (%) for "CCCS(=O)(=O)c1nc(NC2CC2)cc(-c2ccc3c(ccn3C3CC(C)(C)NC(C)(C)C3)c2)n1" and stop.
Out: 11%

In: Specify Population Fragmented Nuclei (%) for "COc1ccc(S(=O)(=O)N(CCO)c2ccccc2CN(C)C/C=C/c2ccc(Cl)cc2)cc1.O=P(O)(O)O" and stop.
Out: 1%

In: Specify Population Fragmented Nuclei (%) for "S=C(NCCCc1c[nH]cn1)NCCCN(Cc1ccc(Cl)c(Cl)c1)c1ccc(Br)cn1" and stop.
Out: 5%

Answer for every listed entry: what is its Population Fragmented Nuclei (%)? The entries follow.
1. Cn1nc(C(F)(F)F)cc1-c1cnc(N2CCc3cc(S(=O)(=O)Nc4c(F)cc(Cl)cc4F)cc(N4CCCC4=O)c32)nc1
2. CCCS(=O)(=O)Nc1ccc(F)c(C(=O)c2c[nH]c3ncc(Cl)cc23)c1F
3. CNc1cc(Oc2cc(C(=O)Nc3cc(N4CCN(C)CC4)cc(C(F)(F)F)c3)ccc2C)ncn1

Out:
["5%", "7%", "8%"]

In: Specify Population Fragmented Nuclei (%) for "O=C(Nc1cccnn1)N1CCC(=Cc2cccc(Oc3ccc(C(F)(F)F)cn3)c2)CC1" and stop.
Out: 5%

====

test system: U2OS; experiment: Multiplex assay against U2OS; type: toxicity, cell-based; settings: human, 48 h, 1 µM, compound concentration 1 uM, replicate 1
Value kind: Population Pyknosed Nuclei (%)
One number for each entry, in %.

Answer for every listed entry: what is its Population Pyknosed Nuclei (%)? The entries follow.
1. C=C1/C(=C\C=C2/CCC[C@]3(C)[C@@H]([C@H](C)/C=C/[C@H](C)C(C)C)CC[C@@H]23)C[C@@H](O)C[C@@H]1O
2. CCOC(=O)c1c(C)[nH]c2ccc3c(c12)CN1CCc2cc(OC)ccc2C1O3 (stereo not given)
3. COc1cc(N2CCN(C)CC2)ccc1Nc1ncc2c(n1)N(C)c1ccccc1C(=O)N2C

Out:
1. 6
2. 9
3. 14

Answer for every listed entry: what is its Population Pyknosed Nuclei (%)? The entries follow.
1. O=C(Nc1ccc(Cl)cc1)Nc1cccc(-c2cccc(N3CCCC3)n2)c1
2. CCOc1cc(C(=O)N2CCC(N3CCN(C)CC3)CC2)ccc1Nc1ncc2c(n1)N(C1CCCC1)c1ccccc1C(=O)N2C

Out:
1: 6; 2: 19

====

test system: HEK-293T; experiment: Multiplex assay against HEK293T; assay type: toxicity, cell-based; settings: human, 12 h, 10 µM, compound concentration 10 uM, replicate 1
Mark t for Total Cell Count under 300, f if at or over.

Use these answered entries as a reference point.
In: Decide: Total Cell Count of "O=C(Cc1ccc(-c2ccc(OCCN3CCOCC3)cc2)cn1)NCc1ccccc1" strictly below 300?
Out: t

In: Decide: Total Cell Count of "Cc1cn(-c2cc(NC(=O)c3ccc(C)c(Nc4nccc(-c5cccnc5)n4)c3)cc(C(F)(F)F)c2)cn1" strictly below 300?
Out: f

In: Decide: Total Cell Count of "NC(=O)c1cccc(-c2cc(Nc3ccc(OC(F)(F)F)cc3)ncn2)c1" strictly below 300?
Out: f

In: Decide: Total Cell Count of "COc1cccc2cc(-c3nc([C@H]4CC[C@H](C(=O)O)CC4)n4ncnc(N)c34)[nH]c12" strictly below 300?
Out: f

Next:
In: Decide: Total Cell Count of "O=C(Nc1cccnn1)N1CCC(=Cc2cccc(Oc3ccc(C(F)(F)F)cn3)c2)CC1" strictly below 300?
Out: f

In: Decide: Total Cell Count of "CNc1cc(Oc2cc(C(=O)Nc3cc(N4CCN(C)CC4)cc(C(F)(F)F)c3)ccc2C)ncn1" strictly below 300?
Out: t

In: Decide: Total Cell Count of "CCOc1cc2ncc(C#N)c(Nc3ccc(OCc4ccccn4)c(Cl)c3)c2cc1NC(=O)/C=C/CN(C)C" strictly below 300?
Out: f

In: Decide: Total Cell Count of "O=C1NC(=O)C(c2cnc3ccccn23)=C1c1cn2c3c(cc(F)cc13)CN(C(=O)N1CCCCC1)CC2" strictly below 300?
Out: t
